Tested on: rodent lifetime carcinogenesis bioassay, tumor incidence TD50
Experiment: carcinogenic potency in animals, long-term in vivo studies, CPDB compilation (AID 1745844)
Settings: rat; strain F344/DuCrj; females; in feed; site: colon; lesion: adenoma; dosed 67 weeks; study length 67 weeks
Property Label: TD50

Exercise: Look up TD50 with rodent lifetime carcinogenesis bioassay, tumor incidence TD50 for this molecule: `Cc1cccn2c1nc1ccc(N)nc12`
Key: 71 mg/kg/day

* * *

Test system: rodent lifetime carcinogenesis bioassay, tumor incidence TD50
Assay: carcinogenic potency in animals, long-term in vivo studies, CPDB compilation (AID 1745844)
Details: mouse; strain Swiss; males; by gavage; site: lung; lesion: adenocarcinoma; dosed 52 weeks; study length 128 weeks
Property Label: TD50 (mg/kg/day)
Return type: number; implicit unit mg/kg/day.

Exercise: Can you share its TD50? I mean this molecule: `CCCCC/C=N/N(C)C=O`
Key: 5.52
